Test system: FXR:RXRa (NR concentration 270 nM, RXRa partner concentration 90 nM)
Method: PBM binding z-score (relative to random genomic background probes); higher = stronger binding; sequences stand for … in GC…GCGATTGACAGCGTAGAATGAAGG
Assign PBM binding z-score to each entry below.
Respond numerically, and do not add a unit to the figure.

[ask] Item under review: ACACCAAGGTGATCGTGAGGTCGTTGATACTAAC . Reported PBM binding z-score?
[reply] 1.59

[ask] I have this sequence here, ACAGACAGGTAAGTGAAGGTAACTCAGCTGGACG , and I need its recorded PBM binding z-score.
[reply] 0.106

[ask] What does the data say about its PBM binding z-score? Entry: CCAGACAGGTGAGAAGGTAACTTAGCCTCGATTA
[reply] 0.0387

[ask] Could you share which PBM binding z-score value was measured for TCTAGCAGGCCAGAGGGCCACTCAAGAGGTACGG ?
[reply] -0.266

[ask] PBM binding z-score lookup needed for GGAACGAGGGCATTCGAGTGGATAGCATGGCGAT , thanks.
[reply] 0.825

[ask] # query: PBM binding z-score of entry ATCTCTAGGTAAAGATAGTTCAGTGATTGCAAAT
[reply] 0.768

[ask] # lookup: PBM binding z-score of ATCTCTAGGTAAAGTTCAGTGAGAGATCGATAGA
[reply] 1.25

[ask] Suppose we examine the sequence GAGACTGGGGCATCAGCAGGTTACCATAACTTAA ; what PBM binding z-score value has been reported?
[reply] 0.0727

[ask] What does the data say about its PBM binding z-score? Entry: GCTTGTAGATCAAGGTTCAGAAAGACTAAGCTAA
[reply] -0.0392

[ask] Consider the sequence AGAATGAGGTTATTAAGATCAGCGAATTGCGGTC and give its measured PBM binding z-score.
[reply] 1.3

[ask] Reported PBM binding z-score for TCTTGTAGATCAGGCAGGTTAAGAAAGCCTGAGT : what is it?
[reply] 0.09

[ask] Endpoint output: PBM binding z-score of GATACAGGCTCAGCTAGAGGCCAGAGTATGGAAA . Value?
[reply] -0.845

[ask] So what's the measured PBM binding z-score for this one? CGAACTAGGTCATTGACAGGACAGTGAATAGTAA
[reply] 4.56

[ask] I am curious: what PBM binding z-score value has been reported for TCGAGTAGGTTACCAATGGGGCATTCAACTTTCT ?
[reply] 0.374

[ask] Requested read-out: PBM binding z-score. Entry: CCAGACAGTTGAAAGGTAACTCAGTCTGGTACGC
[reply] 0.192

[ask] Tell me the measured PBM binding z-score of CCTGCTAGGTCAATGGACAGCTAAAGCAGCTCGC , please.
[reply] 2.71

[ask] // returns reported PBM binding z-score for input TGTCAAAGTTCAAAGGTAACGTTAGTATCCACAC
[reply] 7.28

[ask] Entry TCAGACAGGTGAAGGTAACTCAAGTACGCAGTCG : reported PBM binding z-score = ?
[reply] 1.22

[ask] Endpoint output: PBM binding z-score of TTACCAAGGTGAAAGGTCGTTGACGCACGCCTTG . Value?
[reply] 4.03

[ask] What value of PBM binding z-score has been reported for the following sequence? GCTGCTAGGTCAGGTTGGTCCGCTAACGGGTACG
[reply] 1.45

[ask] Look at this sequence and give its reported PBM binding z-score. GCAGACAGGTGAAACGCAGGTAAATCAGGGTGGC
[reply] -0.326

[ask] Need PBM binding z-score of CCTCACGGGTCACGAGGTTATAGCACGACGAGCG , thanks.
[reply] 6.54

[ask] Quick one: PBM binding z-score of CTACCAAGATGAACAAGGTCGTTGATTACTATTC ?
[reply] 0.828

[ask] State the recorded PBM binding z-score for this entry: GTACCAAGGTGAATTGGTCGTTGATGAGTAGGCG
[reply] 0.321

[ask] Would you kindly share the measured PBM binding z-score for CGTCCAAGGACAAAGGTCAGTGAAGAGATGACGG ?
[reply] 3.18

[ask] Requested field: PBM binding z-score. Item: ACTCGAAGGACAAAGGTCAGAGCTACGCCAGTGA
[reply] 4.03

[ask] Tell me the measured PBM binding z-score of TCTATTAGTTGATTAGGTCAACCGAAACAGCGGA , please.
[reply] 1.7

[ask] Requested read-out: PBM binding z-score. Entry: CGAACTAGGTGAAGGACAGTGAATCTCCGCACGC
[reply] -0.222

[ask] // returns reported PBM binding z-score for input GGAACGAGGGCGAGTTGATAGCAGAGTTTGATGG
[reply] -0.328

[ask] Would you mind telling me what PBM binding z-score value was observed for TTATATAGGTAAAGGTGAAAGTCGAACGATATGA ?
[reply] 1.14

[ask] Which PBM binding z-score value belongs to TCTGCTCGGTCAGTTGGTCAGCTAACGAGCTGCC ?
[reply] -0.211

[ask] Give its PBM binding z-score value. Item: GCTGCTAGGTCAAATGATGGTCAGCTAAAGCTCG
[reply] 4.42

[ask] What does the data say about its PBM binding z-score? Entry: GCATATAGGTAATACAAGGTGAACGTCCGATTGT
[reply] 0.337

[ask] What value of measured PBM binding z-score is listed for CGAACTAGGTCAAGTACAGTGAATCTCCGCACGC ?
[reply] 4.5

[ask] Find the recorded PBM binding z-score belonging to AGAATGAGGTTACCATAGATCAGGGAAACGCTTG and report it.
[reply] 1.71

[ask] Dear colleague, I am looking for the recorded PBM binding z-score of the following sequence: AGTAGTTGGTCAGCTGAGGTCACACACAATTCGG
[reply] 4.48

[ask] Data request, read-out PBM binding z-score, for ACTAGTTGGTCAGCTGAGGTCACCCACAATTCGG
[reply] 3.88

[ask] Quick one: PBM binding z-score of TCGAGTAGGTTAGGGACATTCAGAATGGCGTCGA ?
[reply] 0.438

[ask] Please look up its PBM binding z-score: TAATATAGGTAAACAGGTGAAAGTCCGTAAGTTA
[reply] 0.323

[ask] What does the record list as PBM binding z-score for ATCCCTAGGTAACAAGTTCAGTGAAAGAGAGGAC ?
[reply] 0.484

[ask] Quick one: PBM binding z-score for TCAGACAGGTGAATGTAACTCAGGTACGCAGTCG ?
[reply] 0.149

[ask] Which PBM binding z-score value is on record for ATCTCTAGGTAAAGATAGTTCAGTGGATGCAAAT ?
[reply] 0.0236

[ask] For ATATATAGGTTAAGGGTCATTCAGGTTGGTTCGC , what is its reported PBM binding z-score?
[reply] 5.73

[ask] Fill blank: measured PBM binding z-score of the sequence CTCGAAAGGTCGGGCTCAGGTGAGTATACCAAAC is ____.
[reply] 3.1

[ask] Return reported PBM binding z-score; argument: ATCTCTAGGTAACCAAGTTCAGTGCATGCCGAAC
[reply] 0.755

[ask] What value of measured PBM binding z-score is listed for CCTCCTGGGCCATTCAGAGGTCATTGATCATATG ?
[reply] 2.62

[ask] Could you share which PBM binding z-score value was measured for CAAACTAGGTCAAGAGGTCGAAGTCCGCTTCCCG ?
[reply] 5.04

[ask] Can you look up the measured PBM binding z-score of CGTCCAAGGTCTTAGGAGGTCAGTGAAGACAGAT for me?
[reply] 1.69

[ask] # query: PBM binding z-score of entry TCGAGTAGGTTAGTCGCGGCATTCAGCCAACATA
[reply] -0.279

[ask] Any idea what its PBM binding z-score is? The sequence is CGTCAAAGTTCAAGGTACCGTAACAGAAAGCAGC
[reply] 6.16

[ask] I have this sequence here, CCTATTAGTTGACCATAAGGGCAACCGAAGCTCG , and I need its recorded PBM binding z-score.
[reply] 1.08
